studyTarget: Endonuclease 8-like 1 (Homo sapiens, UniProt Q96FI4)
Sequence (Q96FI4 whole entry): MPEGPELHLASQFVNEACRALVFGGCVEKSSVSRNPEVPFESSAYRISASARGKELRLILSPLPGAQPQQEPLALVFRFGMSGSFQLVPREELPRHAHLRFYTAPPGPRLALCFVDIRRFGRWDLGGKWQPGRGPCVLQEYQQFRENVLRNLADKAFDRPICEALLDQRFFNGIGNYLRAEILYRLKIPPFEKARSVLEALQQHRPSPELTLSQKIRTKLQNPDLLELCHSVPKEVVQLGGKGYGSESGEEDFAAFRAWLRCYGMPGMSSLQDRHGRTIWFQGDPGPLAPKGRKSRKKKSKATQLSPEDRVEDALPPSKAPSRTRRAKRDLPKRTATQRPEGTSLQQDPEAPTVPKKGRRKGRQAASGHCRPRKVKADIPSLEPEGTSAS
assay: Inhibition of NEIL1 (unknown origin) assessed as remaining enzyme activity at 50 uM using Sp/Gh substrate incubated for 40 mins by TAMRA fluorescence-based assay
Let's look at some molecules and their measured Activity.
Please state the figure in %; there is no need to write the unit.

Use these answered entries as a reference point.
| compoundString | Activity, % |
| --- | --- |
| CCCN1CCC(=NNC(=O)c2ccc(Cl)cc2Cl)CC1 | 91.2 |
| C/C(=N\NC(=O)c1cc2ccccc2cc1O)c1ccc2c(c1)OCO2 | 52 |
| NNC(=O)c1sc2cccc(Cl)c2c1Cl | 84.6 |
| O=C(NN=C1CCCCC1)c1cc2ccccc2cc1O | 87.4 |

-- ask Quick one: Activity for Cc1cc(OCC(=O)NN)cc(C)c1Cl ?
-- reply 83.7

-- ask Quick one: Activity for O=C(N/N=C/c1ccc(F)cc1)c1sc2ccccc2c1Cl ?
-- reply 86.7

-- ask Quick one: Activity for CCCC/C(C)=N\NC(=O)c1cccc(Br)c1 ?
-- reply 101

Hello, the source for this data is ChEMBL document CHEMBL4421727, in case you need it.
